# test name: physchem
# test parameters: Britton-Robinson universal buffer, pH 2, aqueous buffer, kinetic from dmso stock
Reported solubility values are given for each entry in this list.

Illustrative cases are given below, each with its answer.
{"molecule": "CC(C)(C)OC(=O)N1CCC(COc2ccc(-c3ccc4c(c3)OCS4(=O)=O)cc2F)CC1", "reading": "< 3 µM"}
{"molecule": "O=S1(=O)COc2cc(-c3ccc(OCC4CCN(c5ncc(Cl)cn5)CC4)c(F)c3)ccc21", "reading": "52 µM"}
{"molecule": "O=S1(=O)COc2cc(-c3ccc(OCC4CCN(c5ncc(Cl)cn5)CC4)nc3)ccc21", "reading": "< 3 µM"}
{"molecule": "CC(C)(C)OC(=O)N1CCC(COc2ccc(-c3ccc4c(c3)OCS4(=O)=O)cn2)CC1", "reading": "< 3 µM"}
{"molecule": "O=S1(=O)COc2cc(-c3ccc(OCC4CCN(CC(F)(F)F)CC4)c(F)c3)ccc21", "reading": "25 µM"}

Kindly review the next molecule as well.
Documented solubility of CC(C)OC(=O)N1CCC(COc2ccc(-c3ccc4c(c3)OCS4(=O)=O)cc2F)CC1 : < 3 µM
